system: 786-0; experiment: NCI tumour cell line growth inhibition, 48 h
Calls of active or inactive are those of the source. Cut-off read from the data, not from the text of the source: active = GI50 up to about 1.1 µM and inactive = higher.
MEASURED_PROPERTY: GI50

Examples from the recorded data:
Cc1csc2nc3[nH]ncc3c(=O)n12 ... > 100 µM (inactive)
CCCCCCCCCCCCCCCCCC(=O)Nc1ccn(C2OC(CO)C(O)C2O)c(=O)n1 (centres undefined) ... > 40.8 µM (inactive)
CC1=C(C)SC(=C2Sc3c(n(C)c(=O)[nH]c3=O)S2)S1 ... > 100 µM (inactive)
CC1(Br)C(=O)NC(=O)N(C2CC(N=[N+]=[N-])C(CO)O2)C1N=[N+]=[N-] (centres undefined) ... > 100 µM (inactive)
CC(CC[C@@]1(O)OC2C[C@H]3[C@@H]4CC[C@H]5CC(OC6OC(CO)C(OC7OC(CO)C(O)C(OC8OCC(O)C(O)C8O)C7OC7OC(CO)C(O)C(O)C7O)C(O)C6O)[C@H](O)CC5(C)[C@H]4CCC3(C)C2[C@@H]1C)COC1OC(CO)C(O)C(O)C1O (some centres undefined) ... 3.43 µM (inactive)

# input Dear colleague, please send me the reported GI50 for `Nc1ccc(S(=O)(=O)NCc2nccs2)cc1` when you can.
# output 28.3 µM (inactive)

# input Dear colleague, please send me the reported GI50 for `O=C1c2ccccc2-c2[nH]c3cn[nH]c(=O)c3c21` when you can.
# output > 100 µM (inactive)

# input Dear colleague, please send me the reported GI50 for O=C1NCN(c2ccccc2)C12CCN(CC1COc3ccccc3O1)CC2 (centres undefined) when you can.
# output 31.6 µM (inactive)

# input Dear colleague, please send me the reported GI50 for `O=c1[nH]c2nccn2c2c1SCCN2` when you can.
# output > 100 µM (inactive)
